- System: 786-0 renal
- experiment_description: NCI-60 one-dose screen, 48 h (100 = growth as untreated, 0 = no growth, -100 = all killed)
- conditions: 10 µM unless noted
This is part of a sample that, as a whole, favours compounds with a hit. Of some 83,000 tested, about 20% had one in any assay.
value_type: growth (%)
Numbers only here, please. The scale is %.

What does the record list as growth for COC1=CC(c2ccc[nH]2)=N/C1=C\c1[nH]c(C)c(C(=O)CCC(=O)Oc2ccc3c(c2)CCC2C3CC[C@]3(C)[C@@H](O)CC[C@@H]23)c1C (stereo partly drawn) ?
-46.3

What does the record list as growth for COc1cc(NS(C)(=O)=O)ccc1Nc1c2ccc([N+](=O)[O-])cc2nc2c(C)cccc12 ?
-3.37

What does the record list as growth for COc1ccccc1CNCCCN1C(=O)c2ccc3c4c(ccc(c24)C1=O)C(=O)N(CCCNCCCCNCCCCN)C3=O ?
23.3

What does the record list as growth for COc1ncc(-c2ccc3ncnc(Nc4cccc(Cl)c4)c3c2)cc1N(S(C)(=O)=O)S(C)(=O)=O ?
79.5

What does the record list as growth for Cc1ccc(C2=NN(c3ccc(S(=O)(=O)NC(=O)NCc4ccccc4)cc3)C(c3ccc(N(C)C)cc3)C2)c(C)c1 (stereo not drawn) ?
68.5

What does the record list as growth for CCSc1nnc(NC(=O)Cc2ccc(Cl)cc2)s1 ?
100

What does the record list as growth for COC(=O)CCCCN=Cc1c(O)c(O)c(C(C)C)c2cc(C)c(-c3c(C)cc4c(C(C)C)c(O)c(O)c(C=NCCCCC(=O)OC)c4c3O)c(O)c12 ?
21.7

What does the record list as growth for COc1ccc2c(c1)C=CC(C#N)N2C(=O)c1ccccc1 (stereo not drawn) ?
23.4
